Data provenance: patent US9464064B2

target_or_test_system: HCV NS3 helicase NS3h_1b(con1) (Hepatitis C virus genotype 1b, UniProt Q9WMX2)
Construct: truncated C-terminally His-tagged NS3 proteins lacking the N-terminal protease, called NS3h; His-tag (C); made in house
Sequence (Q9WMX2 1192-1657): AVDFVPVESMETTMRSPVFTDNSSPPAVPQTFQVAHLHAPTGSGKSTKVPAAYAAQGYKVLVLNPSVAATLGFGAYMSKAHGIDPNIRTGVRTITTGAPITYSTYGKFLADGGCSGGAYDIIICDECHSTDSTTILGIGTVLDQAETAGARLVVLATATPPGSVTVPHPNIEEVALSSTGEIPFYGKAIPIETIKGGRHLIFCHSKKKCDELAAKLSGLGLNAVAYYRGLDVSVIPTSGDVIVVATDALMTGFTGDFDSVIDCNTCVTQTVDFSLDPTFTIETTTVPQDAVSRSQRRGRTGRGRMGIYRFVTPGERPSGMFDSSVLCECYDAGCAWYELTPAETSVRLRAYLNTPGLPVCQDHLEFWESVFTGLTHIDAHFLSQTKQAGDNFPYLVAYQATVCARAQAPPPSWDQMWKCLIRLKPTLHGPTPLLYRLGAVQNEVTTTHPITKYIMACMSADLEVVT
method_summary: MBHA screen of NCI mechanistic set library at 20 μM (percent inhibition, compound interference)
Type: biochemical
condition_label: compounds at 20 μM, MBHA with a DNA substrate; calculated from Equation 1
metric: Inh. (%) (Inhibition)

Examples with answers:
>>> value_reported("CC(=O)NCCCCCCNC(C)=O")
"−3.8"
>>> value_reported("COc1ccc(C2=Nc3ccccc3SC(C)C2)cc1 (centres unmarked)")
"−30.3"
>>> value_reported("CC[C@@]1(O)C(=O)OCc2c1cc1n(c2=O)Cc2cc3c(N)cccc3nc2-1")
"−20.4"
>>> value_reported("Cc1cc(O)c2c(c1)C(=O)c1cc(O)cc(O)c1C2=O")
"−29.4"
>>> value_reported("Cc1ccc(Nc2nc(C)c(C(/C=C/c3ccc(/C=C/C(=N\\NC(=O)C[n+]4ccccc4)c4sc(Nc5ccc(C)cc5[N+](=O)[O-])nc4C)cc3)=N/NC(=O)C[n+]3ccccc3)s2)c([N+](=O)[O-])c1.Cl")
"−22.4"

A = COC(=O)C(=O)C(C(=O)C(=O)Nc1cc(C)ccc1C)c1nc2ccc(C(=O)c3ccccc3)cc2[nH]c1=O (centres unmarked)
B = Cl.NCCSSCc1ccccc1CSSCCN
C = COC1C(O)=C2C(=O)OC(C)(O)/C=C/C=C\C=C/C=C/C(c3ccccc3)NC(=O)/C=C/C=C/C=C/C=C/C2(C)C1O (centres unmarked)
Q: # rank_down: sort by Inh. (%) (Inhibition), max first Note for the reader: the ranking is given by listing the labels in the order requested.
Ans: B, A, C

###

target_or_test_system: HCV NS3 helicase NS3h_1b(con1) (Hepatitis C virus genotype 1b)
Construct: truncated C-terminally His-tagged NS3 proteins lacking the N-terminal protease, called NS3h; His-tag (C); made in house
method_summary: MBHA screen of NCI mechanistic set library at 20 μM (percent inhibition, compound interference)
Assay type: biochemical
condition_label: compounds at 20 μM, MBHA with DNA substrate; calculated from Equation 1
metric: Inh. (%) (Inhibition)

>>> value_reported("O=C(Nc1cccc(C(F)(F)F)c1)C(=O)C(C(=O)c1ccc(Cl)c(Cl)c1)C1OC(=O)c2ccccc21 (stereo not shown) [Compound 644794]")
"−17.5"
>>> value_reported("O=C(c1ccccc1)C(c1ccccc1)C1(O)C(=O)Nc2c(Cl)cc(Cl)cc21 (stereo not shown) [Compound 635312]")
"−18.1"

P = CCCCS(=N)(=O)CCC(N)C(=O)O (stereo not shown) [Compound 326231]
Q = NCCCNCCSP(=O)(O)O [Compound 296961]
Q: Input pair: P , Q . Output: entry with lower Inh. (%) (Inhibition). Please identify the chosen entry by its label.
Ans: Q

I = O=C(O)CC(NC(=O)CP(=O)(O)O)C(=O)O (stereo not shown) [Compound 224131]
II = CC(C)c1ccc(O)c(=O)cc1 [Compound 18805]
III = CCN1C=C/C(=C\C=C\c2cc[n+](CC)c3ccccc23)c2ccccc21.[I-] [Compound 34391]
Q: Place the items in sequence of falling Inh. (%) (Inhibition). Hello, could you send the labels back in the order asked? Thank you.
Ans: III, II, I
(III: 100.6%, II: 31.0%, I: 12.3%)
